- Measurement Notes: yeast display, Sf9 membrane polyspecificity reagent, FACS + sequencing; frameworks hold sequencing errors
Metric: polyreactivity (PSR sort gate)

residue_string=QVQLVESGGGLVQAGGSLRLSCAASGRIFPVYAMGWYRQAPGKERELVAAITSGVSTNYADSVKGRFTISRDNAKYTVYLQMNSLKPEDTAVYYCNKDYTTYPYYEYGYWGQGTQVTVSS experimental_value="low polyreactivity"
residue_string=QVQLVESGGVLVQAGGSLRLSCAPSGFTFYRYAMGWYRQAPGKESELVAAISYSGGRTYYADSVKGRFTISCDIAKNTVYLQMNSLKPEDTAVYYCNARASYGHQGRLGYARLYYWGQGTQVTVSS experimental_value="high polyreactivity"
residue_string=QVQLVESGGGLVQAGGSLRLSCAASGSTFYYYAMGWYRQAPGKERELVAVISWGGGSTYYADSVKGRFTISRDNAKNTVYLQMNSLKPEDTAVYYCAAVYDEYQTSHEYDYWGQGTQVTVSS experimental_value="low polyreactivity"
residue_string=QVQLEESAGGLVQAGGSLRLSCAASGSIFAYYAMGWYRQAPGKERELVAVIRSGGSTYYADSVKGRFTISRDNAKNTVYFQMNSLKPEDTAVYYCAARSYRPTRGDYWGQGTQVTVSS experimental_value="high polyreactivity"
residue_string=QVQLVESGGGLVQAGGSLRLSCAASGIIFPFYAMGWYRQAPGKERELVAAITSDGNTNYADSVKGRFTISRDNAKNTVYLQMNSLKPEDTAVYYCNAETQYGVLSWHSTRHDYWGQGTQVTVSS experimental_value="low polyreactivity"
residue_string=QFQLVESGGGLVQAGGSLRLICAASGLTFVYNDMGWYRQAHGKERELVAGITSGGSTYYADSVKGRFTISRDNAKNTVYLQMNSLKPEDTAVYYGAADGLSTDLFRPDSIVDYWGQGTQVTVSS experimental_value="low polyreactivity"
residue_string=QVQLVESGGGLVQAGGSLRLSCAASGRIFSRYAKGWYRQAPGKERELVAAINKSGGSTYYADSVKGRFTISRDNAKNTVYLQMNSLKPEDTAVYYCNAVYYWYKGDYWGQGTQVTVSS experimental_value="high polyreactivity"
residue_string=QVQLVESGGGLVQAGGSLRLSCAASGLIFYDNMVWYRQGPGTETELVAAISSSGGSTSYADSVKGRFTISRDNAKNTVYLQMNILKPEDTAVYYCAADSYPAYLGFVCFDYWGQGTEVTVSS experimental_value="low polyreactivity"

Task item: For the sequence QVQLVESGGGLVQAGGSLRLSCAASGFIFRRYVMGWYRQAPGKERELVAAISTSGGSTYYADSVKGRFTISRDNAKNSVYLQMNSLKPADTAVYYCNKAVGVTGFDYWGQGTEVTVSS , what polyreactivity (PSR sort gate) is on record?
Reply: high polyreactivity

Task item: // same read-out, input: PVQIVESGGVLDQAGGSLRLSCAASGSIFTRNTMGWYRQAPRKERELVAAISQRGGSTYYADSVKGRFTISRDNAKNTVYLQMNSLIPEDTAVYFCAADFSFGYYWYGYWGQGTQVTVSS
Reply: high polyreactivity

Task item: What about QVQIVESGGGLVQAGASLSLSCAASGSIFGTNAMGWYRQAPGKERELVAAISSAGASTYYADSVKGRFTISRDNAKNTVYLQMNSLKPEDTAVYYCARGYTYQSSSFYYWGQGTQVTVSS ?
Reply: low polyreactivity

----------
- Measurement Notes: yeast display, Sf9 membrane polyspecificity reagent, FACS + sequencing; frameworks hold sequencing errors
Metric: polyreactivity (PSR sort gate)

Examples with answers:
residue_string=QVQLVESGGGLVQEGGSLRLSCAASGRTFEQNAMGWYRQAPGKERELVASITSVGSTDYADSVKGRFTISRDNAKNTVYLQMNSLKTEDTAVYYCAKTLGSQNYDFDYWGQGTQVTVSS metric="polyreactivity (PSR sort gate)" experimental_value="low polyreactivity"
residue_string=QVQLVESGGGLVQAGGSLRLSCADSGIIFAYYAMGWYRQAPGKERELVAAITGGGVRTYYADSVKGRFTISRDNAKNTVYLQMNSLKPEDTAVYDCIATGSTASGRVNYWGQGTQVTVSS metric="polyreactivity (PSR sort gate)" experimental_value="high polyreactivity"
residue_string=QVQLVESGGGLDQAGGSLRLICAASGRIFDVNAMGWYRQAPGKERELVAAISDSGGSTYYADSVKGRFTISRDNAKNTVYLQMNSLKPEDTAVYYCNANTPSLKRSTFNYWGQGTQVTVSS metric="polyreactivity (PSR sort gate)" experimental_value="low polyreactivity"
residue_string=QVQLVDSGGVLVQAGGSLRLSCAASGFTFRDYAMGWYRQAPGKERELVAAISRSGDSTYYADSVKGRFTISRDNAKNTVYLQMNSLKPEDTAVYYYAAKRRYTTYDYWGQGTQVTVSS metric="polyreactivity (PSR sort gate)" experimental_value="high polyreactivity"
residue_string=QVQLVESGGGLVQAGGSLRLSCAASLSIFYVNAMGWYRQAPGKESELVAAISFSGGTTYYADSVKGRFTISRDNAKNTVYLQMNSLKPEDTAVYYCNTPSSREMDYWGQGTQVTVSS metric="polyreactivity (PSR sort gate)" experimental_value="low polyreactivity"
residue_string=QVQLVESGGGLVQAGGSLRLSCAASGRIFKRYVMGWYRQAPGKERELVAAISQRGGSTNYADSVKGRFTISRDNAKNTVYLQMNSLKPEDTAVYYCAAGFFSRYDYWGQGTQVTVSS metric="polyreactivity (PSR sort gate)" experimental_value="high polyreactivity"
residue_string=QVQLVESGGGLVQAGGSLRLSCAASGLTFQVNDMGWYRQAPGKERELVAGITFSGGSTYYPDSVKWRITISRDNAKTTVYLQMNSLKPEDTAVYYCADDTIIGYLYHNVVPTFDYWGQGTQVTVSS metric="polyreactivity (PSR sort gate)" experimental_value="low polyreactivity"
residue_string=QVQLVESGGGLVQAGGSLRLSCAASGFIFPDYAMGWYRQAPGKERELVAAISFRDGSTYYADSVKGRFTISRDNAKNTVYFQINSLKPEDTAVYYCNAGPQYDVHEYYYWGQGSQVTVSS metric="polyreactivity (PSR sort gate)" experimental_value="low polyreactivity"

Task item: Consider the sequence QVQLVESGGGLVQAGGSLRLSCAASGFTFRTYAMGWYRQAPGKERELVAAISKSGGSTYYADSVKGRFTISRDNAKNTVYLQMNSLTPEDTAVYYCNAGEASWFSLHYYWGQGTQVTVSS and give its measured polyreactivity (PSR sort gate).
Reply: high polyreactivity

Task item: Param item: QVQLVESGGGLVQAGGSLRLSCGASGFTFQFYDRGGYRQAPGKEREFVATITWRAGSTYSADSVKGRFTISRDNAKNTVYLQMNSLKPEDTAVYYCNADYYRHSLDYDYVGYDYWGQGTQVTVSS
Reply: low polyreactivity

----------
- Measurement Notes: yeast display, Sf9 membrane polyspecificity reagent, FACS + sequencing; frameworks hold sequencing errors
Metric: polyreactivity (PSR sort gate)

residue_string=QVQLVESGGGLVQAGGSLRLSCAASGRTFSDYVMGWYRQAPGKERELVAAINIGGGSTYYADSVKGRFTISRDNAKNTVYLQMNSLKPEDTAVYYCAAESAGSYLDYYWAYGYWGQGTQVTVSS experimental_value="low polyreactivity"
residue_string=QVQLVESGGGLVQAGGSLRLSCAASGSIFLRYTMGWYRQAPGKETEFVAAITWTADSTYYADSVKGRFTISRDNAKNTVYLQMNSLKPEDTAVYYCAASYSTIWTLYYYWGQGTQVTVSS experimental_value="low polyreactivity"

----------
- Measurement Notes: yeast display, Sf9 membrane polyspecificity reagent, FACS + sequencing; frameworks hold sequencing errors
Metric: polyreactivity (PSR sort gate)

residue_string=QVQLVESGGGLVQAGGSLRLSCAASGIIFTGNAMGWYIQAPGKERELVAAITSGDTTNYADSVKGRFTISRDNAKNTVYLQMNSLKPEDTAVYYCAKELQVRQAGDYWGQGTQVTVSS experimental_value="low polyreactivity"
residue_string=QVELVESGGGLVQAGGSLRLSCAASGCIFTFYAMGWYRTAPGKARELVAAISSSGTSTYYADSVKGRFTISRDNAKNTVYLQMNSLKPEDTAVYYCAAGTAYSRYGYWGQGTQVTVSS experimental_value="high polyreactivity"
residue_string=QVQLVESGGGLVQAGGSLRLTCAASGSILDSNAMGWYRQAPGKERELVSAITSGGSTYYADSVKGRFTISRDNAKNTVYLQMNSLKPEDTAVYYCAAAYLGYGAVQPSYEGGYWGQGTQVTVSS experimental_value="low polyreactivity"
residue_string=QVQLVESGGGLVQAGGSLRLSCAASGRTFTGYAMGWYRQAPGKERELVASISGSGGRTNYADSVKGRFTISRDNAKNTVYLQMNSLKPEDTAVYYCAARYRTWFGYWGQGTQVTVSS experimental_value="high polyreactivity"

Please examine the following record next.
Task item: Give its polyreactivity (PSR sort gate) value. Item: QVQLVESGGGLVQAGGSLRLSCAASGSTFLVYAMGWYRQAPGKERELVAVITRGVRTFYADSVKGRFTFSRDNAKNTVYLQMNSLKPEDTAVYYCAKERYNANYDTSLYDYWGQGTQVTVSS
Reply: low polyreactivity
